target: CYP1A2 (Homo sapiens); construct: from tissue; host or cells: human liver microsomes; assay: CYP inhibition assay, human liver microsomes, substrate tacrine; assay type: in vitro ADME; conditions: human liver microsomes, 10 min incubation, LC-MS/MS; read-out: CYP Inhibition Activity (IC50/nM) CYP1A2
Kindly state IC50 for each of the entries shown.

Here are 4 molecules together with their reported answers.
# Molecule, Observation type, Meas value
data = [
    ("CC1(O)CCN(c2ccc(C3CC3)cc2NC(=O)c2ccccn2)CC1", "IC50", "14400 nM"),
    ("CC1(O)CCCN(c2ccc(Cl)cc2NC(=O)c2ccc(C3CCOCC3)o2)CC1 (racemic)", "IC50", "2660 nM"),
    ("COc1ccc(N2CCC(C)(C(=O)N(C)C)CC2)c(NC(=O)c2ccc(C3CCOCC3)o2)c1", "IC50", "> 30000 nM"),
    ("CN(C)C(=O)C1(C)CCN(c2ccc(C3CC3)cc2NC(=O)c2ccc(C3CCOCC3)o2)CC1", "IC50", "> 30000 nM"),
]

Go through the list and state IC50 for each entry.
1. CC1(O)CCN(c2ccc(C(F)(F)F)cc2NC(=O)c2ccccn2)CC1
2. CC1(C)CCN(c2ccc(C3CC3)cc2NC(=O)c2ccc(C3CCOCC3)o2)CC1

A.
["15300 nM", "> 30000 nM"]

Go through the list and state IC50 for each entry.
1. O=C(Nc1cc(C(F)(F)F)ccc1N1CCN(Cc2cocn2)CC1)c1ccc(-c2ccncc2)o1 [Reference Example 4, reference compound]
2. O=C(Nc1cc(Cl)ccc1N1CCC(O)CC1)c1ccc(C2CCOCC2)o1

A.
> 30000 nM
> 30000 nM

---

biological target: CYP2C9 (Homo sapiens, UniProt P11712); construct: from tissue; host or cells: human liver microsomes; test: CYP inhibition assay, human liver microsomes, substrate diclofenac; assay type: in vitro ADME
Sequence (P11712 whole entry): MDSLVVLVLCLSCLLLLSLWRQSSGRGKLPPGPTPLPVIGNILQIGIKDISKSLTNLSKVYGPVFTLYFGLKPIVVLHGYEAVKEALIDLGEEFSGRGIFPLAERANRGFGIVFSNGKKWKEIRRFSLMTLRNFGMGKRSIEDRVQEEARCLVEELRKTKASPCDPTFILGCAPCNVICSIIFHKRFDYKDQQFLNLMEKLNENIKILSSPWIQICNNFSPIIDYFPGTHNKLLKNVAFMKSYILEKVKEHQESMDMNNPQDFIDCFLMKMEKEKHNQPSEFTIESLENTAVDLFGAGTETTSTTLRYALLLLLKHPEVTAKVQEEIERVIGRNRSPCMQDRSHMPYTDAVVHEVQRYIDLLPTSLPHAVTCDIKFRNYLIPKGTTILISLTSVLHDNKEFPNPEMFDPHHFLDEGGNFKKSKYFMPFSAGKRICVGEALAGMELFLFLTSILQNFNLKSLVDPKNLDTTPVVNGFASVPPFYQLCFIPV
Observation type: pIC50
Answers are plain numbers, as −log10 of the molar value.

# Compound, pIC50
records = [
    ("O=C(Nc1cc(C(F)(F)F)ccc1N1CCC2(CCCC2)CC1)c1ccc(C2CCOCC2)o1", 4.73),
]

Q. Look up pIC50: O=C(Nc1cc(C(F)(F)F)ccc1N1CCN(Cc2ccccn2)CC1)c1ccc(-c2ccncc2)o1 [Reference Example 1, reference compound]
A. 6.77

---

target: CYP1A2 (Homo sapiens, UniProt P05177); construct: from tissue; host or cells: human liver microsomes; assay: CYP inhibition assay, human liver microsomes, substrate tacrine; type: in vitro ADME; conditions: human liver microsomes, 10 min incubation, LC-MS/MS; read-out: CYP Inhibition Activity (IC50/nM) CYP1A2
Sequence (P05177 whole entry): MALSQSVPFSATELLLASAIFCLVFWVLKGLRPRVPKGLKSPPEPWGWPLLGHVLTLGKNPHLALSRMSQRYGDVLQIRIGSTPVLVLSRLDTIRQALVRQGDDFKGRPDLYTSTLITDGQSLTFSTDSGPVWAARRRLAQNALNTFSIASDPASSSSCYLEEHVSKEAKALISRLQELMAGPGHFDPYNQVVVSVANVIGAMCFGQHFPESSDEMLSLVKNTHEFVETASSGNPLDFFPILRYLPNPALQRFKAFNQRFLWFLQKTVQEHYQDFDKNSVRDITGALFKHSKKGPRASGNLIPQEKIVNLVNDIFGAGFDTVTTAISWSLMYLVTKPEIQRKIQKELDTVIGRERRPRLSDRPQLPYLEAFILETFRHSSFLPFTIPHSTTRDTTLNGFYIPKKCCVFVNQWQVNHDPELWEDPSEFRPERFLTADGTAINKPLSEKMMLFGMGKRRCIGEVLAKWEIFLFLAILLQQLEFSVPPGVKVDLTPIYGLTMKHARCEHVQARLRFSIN
Kindly state IC50 for each of the entries shown.
One number for each entry, in nM.

# Molecule, Result units, IC50
records = [
    ("O=C(Nc1cc(C(F)(F)F)ccc1N1CCC(O)(c2ccccc2)CC1)c1ccc(C2CCOCC2)o1", "nM", 15300),
    ("CC1(O)CCCN(c2ccc(C3CC3)cc2NC(=O)c2ccc(-c3ccncc3)o2)CC1 (racemic)", "nM", 17600),
    ("CC1(O)CCCN(c2ccc(C(F)(F)F)cc2NC(=O)c2ccc(-c3ccncc3)o2)CC1 (racemic)", "nM", 24100),
    ("CC1(O)CCN(c2ccc(Cl)cc2NC(=O)c2ccc(-c3ccncc3)o2)CC1", "nM", 8130),
    ("O=C(Nc1cc(C(F)(F)F)ccc1N1CCC(O)CC1)c1ccc(C2CCOCC2)o1", "nM", 10000),
]

Go through the list and state IC50 for each entry.
1. O=C(Nc1cc(C(F)(F)F)ccc1N1CCCC(O)CC1)c1ccc(-c2ccncc2)o1 (racemic)
2. CC1CCN(c2ccc(C(F)(F)F)cc2NC(=O)c2ccc(-c3ccncc3)o2)CC1
3. CC1(O)CCN(c2ccc(C3CC3)cc2NC(=O)c2ccc(C3CCOCC3)o2)C1 (racemic)
4. CC1(O)CCN(c2ccc(C(F)F)cc2NC(=O)c2ccc(C3CCOCC3)o2)CC1
5. O=C(Nc1cc(C(F)(F)F)ccc1N1CCC(O)(CC2CC2)CC1)c1ccc(C2CCOCC2)o1
6. CC1(O)CCN(c2ccc(C3CC3)cc2NC(=O)c2ccc(-c3ccncc3)o2)CC1
7. Cc1ccc(N2CCC(C)(O)CC2)c(NC(=O)c2ccc(-c3ccncc3)o2)c1
8. CC1(O)CCCN(c2ccc(Cl)cc2NC(=O)c2ccc(-c3ccncc3)o2)CC1 (racemic)

A.
1: 24300; 2: 4000; 3: 10500; 4: 19000; 5: 2510; 6: 11700; 7: 11100; 8: 21700

Q. Look up IC50: O=C(Nc1cc(C(F)(F)F)ccc1N1CCN(Cc2ccco2)CC1)c1ccc(-c2ccncc2)o1 [Reference Example 2, reference compound]
A. 21800
